# Target of assay: CysLTR1 (Homo sapiens, UniProt Q9Y271)
# Construct: expressed in transfected cells; host or cells: HEK293
# Sequence (Q9Y271 whole entry): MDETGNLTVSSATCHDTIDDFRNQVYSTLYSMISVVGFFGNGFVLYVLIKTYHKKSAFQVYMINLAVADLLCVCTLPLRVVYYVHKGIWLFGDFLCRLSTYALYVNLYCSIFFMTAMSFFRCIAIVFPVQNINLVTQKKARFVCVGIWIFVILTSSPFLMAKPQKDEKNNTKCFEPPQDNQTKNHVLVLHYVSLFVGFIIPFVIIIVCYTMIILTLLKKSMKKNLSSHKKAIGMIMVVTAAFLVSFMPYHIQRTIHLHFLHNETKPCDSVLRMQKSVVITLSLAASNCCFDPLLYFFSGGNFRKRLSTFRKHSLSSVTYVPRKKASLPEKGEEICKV
# Protocol: In vitro CysLTR1 FLIPR antagonist test
# Format: cell-based
# Cond: CYSLTR1/HEK293 cell line, Fluo-4 calcium assay, Example 37
pIC50: −log10 of the molar value.
Reported endpoint: pIC50

1) C=C(C)c1ccccc1CC[C@@H](SCC1(CC(=O)O)CC1)c1cccc(/C=C/c2ccc3ccc(Cl)cc3n2)c1 :: 6.80
